Form field: log10(Kd) (one value per entry).
molecular target: VHL-Elongin C-Elongin B (VCB) complex (Homo sapiens); construct: gene (residues 54-213) was cloned into pET28a(+) vector; Elongin C (residues 17-112); His-tag (cleaved yes); made in house; host or cells: E. coli BL21(DE3), M9 minimal media with 15NH4Cl; assay: Protein-observed NMR (1H-15N TROSY) titration of fragment hits against 15N-labeled VCB; format: binding; settings: TROSY titration, fragment 0.31-10 mM, 310K, Hill's equation model; hits grouped by binding pocket (A unknown, B VHL cryptic, C Elongin C, D HIF1α); read-out: NMR-derived binding affinity (KD)
Sequence (P40337 54-213): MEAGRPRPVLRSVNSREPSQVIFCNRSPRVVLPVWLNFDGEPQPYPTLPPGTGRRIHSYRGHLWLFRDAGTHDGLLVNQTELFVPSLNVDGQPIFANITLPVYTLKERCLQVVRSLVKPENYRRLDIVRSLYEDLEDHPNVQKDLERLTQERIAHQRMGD
Sequence (Q15369 17-112, further chain): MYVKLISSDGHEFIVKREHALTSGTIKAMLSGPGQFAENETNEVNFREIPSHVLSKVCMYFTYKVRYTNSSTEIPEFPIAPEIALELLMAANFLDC
Sequence (Q15370 1-104 partner limits assumed): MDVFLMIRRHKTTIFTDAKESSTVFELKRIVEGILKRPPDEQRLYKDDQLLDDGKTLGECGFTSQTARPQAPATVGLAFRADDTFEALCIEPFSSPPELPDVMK
Give log10 of Kd, with Kd taken in mM.

Cc1nc2cc(C(=O)O)ccc2n1C	0.78

[in] Value lookup for log10(Kd); key = O=C1CCc2cc([N+](=O)[O-])ccc2N1
[out] 0.23

[in] Fill blank: measured log10(Kd) of the compound CC(=O)N1CCc2ccc([N+](=O)[O-])cc21 is ____.
[out] -0.18

----------
molecular target: VHL-Elongin C-Elongin B (VCB) complex (Homo sapiens); construct: gene (residues 54-213) was cloned into pET28a(+) vector; Elongin C (residues 17-112); His-tag (cleaved yes); made in house; host or cells: E. coli BL21(DE3), M9 minimal media with 15NH4Cl; experiment: Protein-observed NMR (1H-15N TROSY) titration of fragment hits against 15N-labeled VCB; format: binding
QUANTITY_KIND: Kd (mM)
Please reply with the bare figure in mM and do not write the unit itself.

[in] // query Kd value for entry CC(C)N1CCN(Cc2ccccc2F)CC1
[out] 3.7

----------
target: VHL-Elongin C-Elongin B (VCB) complex (Homo sapiens); construct: gene (residues 54-213) was cloned into pET28a(+) vector; Elongin C (residues 17-112); His-tag (cleaved yes); made in house; host or cells: E. coli BL21(DE3), M9 minimal media with 15NH4Cl; experiment: Protein-observed NMR (1H-15N TROSY) titration of fragment hits against 15N-labeled VCB; type: binding; details: TROSY titration, fragment 0.31-10 mM, 310K, Hill's equation model; hits grouped by binding pocket (A unknown, B VHL cryptic, C Elongin C, D HIF1α); read-out: NMR-derived binding affinity (KD)
QUANTITY_KIND: pKd
Scale explanation: pKd corresponds to minus log10 of a concentration expressed in moles per litre.

Nc1ccc2c(c1)ncn2CCO	2.40

[in] I have this compound here, CN(C)CCN(C)Cc1ccc(F)cc1 , and I need its recorded pKd.
[out] 2.89

[in] Any idea what pKd was measured for CC(=O)c1cccc(NC(=O)c2cccs2)c1 ?
[out] 3.33

[in] Would you mind telling me what pKd value was observed for SC1=NC2(CCCC2)N=C1c1ccccc1 ?
[out] 3.28

[in] Given CC(C)OC(=O)c1ccc(Cl)c(N)c1 , state its recorded pKd.
[out] 2.25

[in] Need pKd of O=C(O)c1ccnc2[nH]cnc12 , thanks.
[out] 2.12

[in] Query (compound): O=C(Nc1ccc(F)c(Cl)c1)c1cnccn1 ; field requested: pKd
[out] 3.15

[in] Given CC(C)NC(=O)c1cc2ccc3cccnc3c2[nH]1 , state its recorded pKd.
[out] 2.09

[in] Entry Nc1nc2ccccc2n1Cc1ccccc1 : reported pKd = ?
[out] 3.31

[in] Please give the measured pKd for this compound: Clc1ccc(CN2CCCCC2)cc1Cl
[out] 3.35

[in] Sample Cc1cc(Nc2cccc(O)c2)c2cccc(C)c2n1 — what was its pKd?
[out] 2.80
